# test-system: PARG (Homo sapiens)
# Sequence (Q86W56 whole entry): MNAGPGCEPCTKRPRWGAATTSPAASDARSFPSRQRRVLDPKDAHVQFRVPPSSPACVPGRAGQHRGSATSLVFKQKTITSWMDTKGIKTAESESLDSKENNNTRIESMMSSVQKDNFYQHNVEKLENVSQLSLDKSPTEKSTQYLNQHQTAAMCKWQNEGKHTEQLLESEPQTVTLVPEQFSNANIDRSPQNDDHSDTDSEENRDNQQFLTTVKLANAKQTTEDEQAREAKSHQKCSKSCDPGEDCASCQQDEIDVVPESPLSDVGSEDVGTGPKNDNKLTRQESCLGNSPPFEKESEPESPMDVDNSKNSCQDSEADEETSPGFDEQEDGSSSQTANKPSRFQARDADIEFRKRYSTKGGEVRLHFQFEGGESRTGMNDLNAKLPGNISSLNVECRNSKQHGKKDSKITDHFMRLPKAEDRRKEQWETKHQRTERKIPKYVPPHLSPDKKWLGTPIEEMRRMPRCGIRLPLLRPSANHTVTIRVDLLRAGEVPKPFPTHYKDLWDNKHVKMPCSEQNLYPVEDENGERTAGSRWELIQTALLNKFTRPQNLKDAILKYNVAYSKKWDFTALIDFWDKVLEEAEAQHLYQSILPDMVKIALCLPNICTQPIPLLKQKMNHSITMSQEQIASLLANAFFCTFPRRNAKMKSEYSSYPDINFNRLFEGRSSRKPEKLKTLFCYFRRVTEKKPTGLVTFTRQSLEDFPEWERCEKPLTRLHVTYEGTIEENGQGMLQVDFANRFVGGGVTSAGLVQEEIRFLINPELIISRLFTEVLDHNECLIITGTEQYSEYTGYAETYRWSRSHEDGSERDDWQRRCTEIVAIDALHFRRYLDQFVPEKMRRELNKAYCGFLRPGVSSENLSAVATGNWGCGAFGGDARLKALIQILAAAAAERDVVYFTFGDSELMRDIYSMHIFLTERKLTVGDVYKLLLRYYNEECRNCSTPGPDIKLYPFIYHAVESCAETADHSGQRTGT
# experiment: Biochemical assay (PARG, TFMU-ADPr substrate)
# assay-conditions: PARG, TFMU-ADPr substrate
reported-property: IC50 (nM)

// below: answered compounds
Which value of IC50 has been reported for Cn1ccnc1N1CCN(c2cc(S(=O)(=O)NC3(C#N)CC3)cn3c(-c4nnc(C(F)(F)F)s4)ncc23)CC1 in the records?
38

Any idea what its IC50 is? The compound is CC(=O)N1CC=C(c2cc(S(=O)(=O)NC3(C#N)CC3)cn3c(-c4nnc(C(F)(F)F)s4)ncc23)CC1
41.7

What IC50 value was documented for this compound, C[C@H]1CN(c2cc(S(=O)(=O)NC3(C)COC3)cn3c(-c4nnc(C(F)F)s4)cnc23)C[C@H](C)N1 ?
0.53

# input compound: Cc1ncn(CC(=O)N2CCN(c3cc(S(=O)(=O)NC4(C)CC4)cn4c(-c5nnc(C(F)(F)F)s5)ncc34)CC2)n1 ; wanted: its IC50
6.31

What value of IC50 has been reported for the following compound? C[C@H]1CN(c2cc(S(=O)(=O)NC3(C)COC3)cn3c(-c4nnc(C(F)F)s4)ncc23)C[C@H](C)N1
0.35

Consider the compound shown here: CNC1(C(=O)N2CCN(c3cc(S(=O)(=O)NC4(C#N)CC4)cn4c(-c5nnc(C(F)(F)F)s5)ncc34)CC2)CC1 What is its recorded IC50?
22.9

Which IC50 reading was recorded for the compound C[C@@H]1CN(c2cc(S(=O)(=O)NC3(C)CC3)cn3c(-c4nnc(C(F)F)s4)nnc23)CCN1C(=O)C1(C)CC1 ?
8.71

What does the data say about its IC50? Entry: COC1(C(=O)N2CCN(c3cc(S(=O)(=O)NC4(C)CC4)cn4c(-c5nnc(C(F)F)s5)ncc34)C[C@H]2C)CC1
0.19

Recorded IC50 for CC(C)C(=O)N1CCN(c2cc(S(=O)(=O)NC3(C#N)CC3)cn3c(-c4nnc(C(F)F)s4)nc(Cl)c23)CC1 , please?
3.16

What value of IC50 has been recorded for this entry: C[C@@H]1CN(c2cc(S(=O)(=O)NC3(C#N)CC3)cn3c(-c4nnc(C(F)(F)F)s4)ncc23)CCN1C(=O)C1(C)CC1
28.8

1. C[C@@H]1CN(c2cc(S(=O)(=O)NC3(C)CC3)cn3c(-c4nnc(C(F)F)s4)ncc23)CCN1C(=O)C1CNC1
2. N#CC1(NS(=O)(=O)c2cc(N3CCN(C(=O)[C@H]4CCN4)CC3)c3cnc(-c4nnc(C(F)(F)F)s4)n3c2)CC1
Higher IC50: 1 or 2 ? Selection: enter the item's label.
2

I. COCC1CN(c2cc(S(=O)(=O)NC3(C)COC3)cn3c(-c4nnc(C(F)F)s4)ncc23)CCN1 (centres unmarked)
II. N#CC1(NS(=O)(=O)c2cc(N3CCC(n4cncn4)CC3)c3cnc(-c4nnc(C(F)(F)F)s4)n3c2)CC1
Which has the higher IC50, I or II ? Pick one and reply with its label.
II
